Below: a set of entries, each annotated with reported viability, T/C.
tested on: MDA-MB-231 complex spheroid viability; test: Anticancer human tumor MDA-MB-231/ATCC cell line growth inhibition; settings: second compound 1 µM; first compound 3.16 µM; hits give low values;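 also: drug exposure lasted 7 days starting on day 3 of spheroid growth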
quantity: viability, T/C (%)

>>> assay_value("CC(C)c1c(-c2ccccc2)nc2c(C#N)c[nH]n2c1=O + NC1CC1c1ccc(-c2cccc(O)c2)cc1")
58.3
>>> assay_value("COc1ccc([C@@H](O)c2cc(-c3ncnc4cc(N5CCOCC5)ccc34)c(F)cc2Cl)nn1 + NC1CCC(NC2CC2c2ccccc2)CC1")
28.9
>>> assay_value("CC1(C)CCC(CN2CCN(c3ccc(C(=O)NS(=O)(=O)c4ccc(NCC5CCOCC5)c([N+](=O)[O-])c4)c(Oc4cnc5[nH]ccc5c4)c3)CC2)=C(c2ccc(Cl)cc2)C1 + NC1CC1c1ccc(-c2cccc(O)c2)cc1")
70
